target: recombinant CEACAM6 N-terminal domain (expressed in E. coli) (Homo sapiens (Human)); assay: SPR (Biacore 3000), 9A6 immobilised, CEACAM6 recombinant protein injected at 0.1-200 nM
measured_attribute: Kd
Write your answer as a measured quantity: the number, then the unit.

Report Kd, nothing else, for this substance: anti-CEACAM6 mouse monoclonal antibody 9A6 (Santa Cruz Biotechnology) 8 nM
